Provenance of the data: patent US20060252813A1

biological target: EcParvulin (Escherichia coli)
Sequence (P0A9L5 whole entry): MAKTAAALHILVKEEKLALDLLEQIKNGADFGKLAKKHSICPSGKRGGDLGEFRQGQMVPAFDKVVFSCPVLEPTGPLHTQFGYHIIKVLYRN
Where a SMILES comes first, the peptide text is derived from it. [ ]: non-standard residue; d: D form. Phe(3-CN) = N#Cc1cccc(C[CH](N)C(=O)O)c1; 1Nal = N[CH](Cc1cccc2ccccc12)C(=O)O
MEASURE NAME: IC50

Inquiry: Supply recorded IC50 for CC(=O)NC(Cc1cccc2ccccc12)C(=O)NC(Cc1cccc(C#N)c1)C(N)=O (stereo not shown) [Compound 9] (Ac-[1Nal]-[Phe(3-CN)]-NH2; configuration not given here) here.
Reply text: 5 to 10 µM

----------
target: hPin1 (Homo sapiens, UniProt Q13526)
Sequence (Q13526 whole entry): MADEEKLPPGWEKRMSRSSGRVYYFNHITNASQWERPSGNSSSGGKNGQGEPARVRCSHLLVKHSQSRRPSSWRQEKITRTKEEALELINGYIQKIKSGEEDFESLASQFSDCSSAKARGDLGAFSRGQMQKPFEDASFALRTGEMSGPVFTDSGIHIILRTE
pIC50: −log10 of the molar value. Where a SMILES comes first, the peptide text is derived from it. [ ]: non-standard residue; d: D form. Phe(3-CN) = N#Cc1cccc(C[CH](N)C(=O)O)c1; Phe(2-CN) = N#Cc1ccccc1C[CH](N)C(=O)O; 1Nal = N[CH](Cc1cccc2ccccc12)C(=O)O
MEASURE NAME: pIC50

Inquiry: Supply recorded pIC50 for CCc1ccc(NC(=S)NCCC#N)cc1 [Compound 5] here.
Reply text: > 5.30

Inquiry: Supply recorded pIC50 for CC(C)CC(NC(=O)C1CCCN1CC#N)C(N)=O (centres unmarked) [Compound 6] here.
Reply text: 5.00 to 5.30

Inquiry: Supply recorded pIC50 for CCNC(=S)NC(Cc1ccc2ccccc2c1)C(=O)NCCC#N (centres unmarked) [Compound 1] here.
Reply text: > 5.30

Inquiry: Supply recorded pIC50 for N#CCCNC(=O)[C@H](Cc1csc2ccccc12)NC(=S)Nc1ccc(SC(F)(F)F)cc1 [Compound 2] here.
Reply text: 5.00 to 5.30

Inquiry: Supply recorded pIC50 for CC(=O)NC(Cc1cccc2ccccc12)C(=O)NC(Cc1cccc(C#N)c1)C(N)=O (centres unmarked) [Compound 9] (Ac-[1Nal]-[Phe(3-CN)]-NH2; configuration not given here) here.
Reply text: 5.00 to 5.30

Inquiry: Supply recorded pIC50 for CN(C)c1ccc(N=Nc2ccc(S(=O)(=O)NCCC#N)cc2)cc1 [Compound 7] here.
Reply text: 5.00 to 5.30

Inquiry: Supply recorded pIC50 for CC(=O)NC(Cc1cccc2ccccc12)C(=O)NC(Cc1ccccc1C#N)C(N)=O (centres unmarked) [Compound 8] (Ac-[1Nal]-[Phe(2-CN)]-NH2; configuration not given here) here.
Reply text: > 5.30

Inquiry: Supply recorded pIC50 for N#CCCNS(=O)(=O)Cc1ccccc1 [Compound 3] here.
Reply text: 5.00 to 5.30

----------
I'd be grateful if you could share measured pIC50 for these entries.
pIC50: −log10 of the molar value. Where a SMILES comes first, the peptide text is derived from it. [ ]: non-standard residue; d: D form. Phe(3-CN) = N#Cc1cccc(C[CH](N)C(=O)O)c1; Phe(2-CN) = N#Cc1ccccc1C[CH](N)C(=O)O; 1Nal = N[CH](Cc1cccc2ccccc12)C(=O)O

Inquiry: Provide pIC50, system LpCyp18 (Legionella pneumophila, UniProt Q5ZRZ4), entry CN(C)c1ccc(N=Nc2ccc(S(=O)(=O)NCCC#N)cc2)cc1
Reply text: < 4.00

Inquiry: Provide pIC50, system LpCyp18 (Legionella pneumophila, UniProt Q5ZRZ4), entry CCc1ccc(NC(=S)NCCC#N)cc1
Reply text: < 4.00

Inquiry: Provide pIC50, system LpCyp18 (Legionella pneumophila, UniProt Q5ZRZ4), entry CC(=O)NC(Cc1cccc2ccccc12)C(=O)NC(Cc1ccccc1C#N)C(N)=O (centres unmarked) [Compound 8] (Ac-[1Nal]-[Phe(2-CN)]-NH2; configuration not given here)
Reply text: < 4.00

Inquiry: Provide pIC50, system LpCyp18 (Legionella pneumophila, UniProt Q5ZRZ4), entry N#CCCNC(=O)[C@H](Cc1csc2ccccc12)NC(=S)Nc1ccc(SC(F)(F)F)cc1
Reply text: < 4.00

Inquiry: Provide pIC50, system LpCyp18 (Legionella pneumophila, UniProt Q5ZRZ4), entry N#CCCNS(=O)(=O)Cc1ccccc1
Reply text: < 4.00

Inquiry: Provide pIC50, system LpCyp18 (Legionella pneumophila, UniProt Q5ZRZ4), entry CC(C)CC(NC(=O)C1CCCN1CC#N)C(N)=O (centres unmarked)
Reply text: < 4.00

Inquiry: Provide pIC50, system LpCyp18 (Legionella pneumophila, UniProt Q5ZRZ4), entry CC(=O)NC(Cc1cccc2ccccc12)C(=O)NC(Cc1cccc(C#N)c1)C(N)=O (centres unmarked) [Compound 9] (Ac-[1Nal]-[Phe(3-CN)]-NH2; configuration not given here)
Reply text: < 4.00

Inquiry: Provide pIC50, system LpCyp18 (Legionella pneumophila, UniProt Q5ZRZ4), entry CCNC(=S)NC(Cc1ccc2ccccc2c1)C(=O)NCCC#N (centres unmarked)
Reply text: < 4.00
